tested on: T24 (bladder) human-derived tumor cell line; experiment: MTT reduction antiproliferative assay, T24 bladder cells; type: cell-based; settings: 48 h incubation, mean of at least three experiments, read-out: EC50 ± SEM T24
pEC50: −log10 of the molar value.
Measure: pEC50

{"columns": ["Molecule", "pEC50"],
 "data": [
  ["Cc1cccc(C(=O)c2cc(O)ccc2O)c1 [compound 5]", 3.69],
  ["CO[C@@]12[C@H](COC(N)=O)C3=C(C(=O)C(C)=C(N)C3=O)N1C[C@@H]1N[C@@H]12 [MIT, mitomycin C, reference compound]", 4.37],
  ["O=C(c1ccccc1)c1cc(O)ccc1O [compound 3, (2,5-Dihydroxyphenyl)(phenyl)methanone]", 3.73],
  ["Cc1ccccc1C(=O)c1cc(O)ccc1O [compound 4]", 3.76]
]}
